Target: MAST2, Q6P0Q8
Sequence (Q6P0Q8 1099-1202): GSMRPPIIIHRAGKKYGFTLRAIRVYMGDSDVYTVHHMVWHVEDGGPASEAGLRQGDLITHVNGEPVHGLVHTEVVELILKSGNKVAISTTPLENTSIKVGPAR
Test: holdup assay
Set-up: key: below the threshold = too weak to quantify, mostly under pKd 3.1 to 4
Conditions: plain residues with an end cap or a label only (N-terminal biotin on a linker: ado-ado)
reported metric: pKd

A selection of reference data follows.
binder	pKd
KKAPTNEFYA [SDC4, P31431]	below the threshold
LSEFKAMDSI [CTNNA1, P35221]	below the threshold
VYPNAKVELV [PDLIM4_iso2, P50479;P50479-1]	below the threshold
NHSSSPETTA [TRMT13, Q9NUP7]	below the threshold
HLRARKSEWV [GJD4, Q96KN9]	below the threshold
TPPAAKKSRI [BAZ1A, Q9NRL2]	below the threshold
EALLQMESVA [CAVIN3, Q969G5]	below the threshold

Would you kindly look at the next entry?
Request: Consider the binder YYKRPVQEWV [MMP24, Q9Y5R2] . State its measured pKd.
Result: below the threshold
